FYI, the data here is from the Human Domainome abundance scans (Beltran et al. 2025).

B1: Transcription factor SOX-11, residues 50 to 117; numbered along this chain, P35716 (parent)
chain: KRPMNAFMVWSKIERRKIMEQSPDMHNAEISKRLGKRWKMLKDSEKIPFIREAERLRLKHMADYPDYK

- Variants of: B1
- METHOD DESCRIPTION: abundance fitness (aPCA) (normalised: wild type 0, dead -1); higher = more abundant; growth selection in yeast, the domain comes from the species named
- CONDITIONS USED: Homo sapiens
Binning rule for recorded abundance fitness: bottom end: < -0.7; midrange: ≥ -0.7 and < -0.3; top end: ≥ -0.3

P23N    bottom end

Query block: Form: Item = "E20H" ; Class = ?
Result block: midrange

Query block: Likewise for "K42D" ?
Result block: top end

Query block: Likewise for "E29T" ?
Result block: bottom end

Query block: Likewise for "R33T" ?
Result block: top end

Query block: Likewise for "K46G" ?
Result block: midrange
